All values here come from patent US8759500B2.

Experiment: in vivo
Conditions: female, Balb/c, mouse, po, 20 mg/kg
ASSAY_READOUT: concentration at 4 h

// concentration at 4 h lookup, molecule = CC[C@H]1OC(=O)[C@@](C)(F)C(=O)[C@H](C)[C@@H](O[C@@H]2O[C@H](C)C[C@H](N(C)C)[C@H]2O)[C@](C)(OC)C[C@@H](C)C(=O)[C@H](C)[C@H]2N(CCCCn3cc(-c4cccc(N)c4)nn3)C(=O)O[C@]12C [Form I, solithromycin] , result: 7700 ng/mL

====

Test: Further oral pharmacokinetic study in female Balb/c mice, 5, 10 and 20 mg/kg
Conditions: mouse, plasma, 20 mg/kg, t½, Median, 20 mg/kg single oral dose
ASSAY_READOUT: half-life (h)
// units = h; emit number, no label

half-life in this record for CC[C@H]1OC(=O)[C@@](C)(F)C(=O)[C@H](C)[C@@H](O[C@@H]2O[C@H](C)C[C@H](N(C)C)[C@H]2O)[C@](C)(OC)C[C@@H](C)C(=O)[C@H](C)[C@H]2N(CCCCn3cc(-c4cccc(N)c4)nn3)C(=O)O[C@]12C [Form II, solithromycin] : 2.46

====

Assay: in vivo
Conditions: female, Balb/c, mouse, po, 100 mg/kg
ASSAY_READOUT: Tmax
Include the unit right after the number.

Per the record, CC[C@H]1OC(=O)[C@@](C)(F)C(=O)[C@H](C)[C@@H](O[C@@H]2O[C@H](C)C[C@H](N(C)C)[C@H]2O)[C@](C)(OC)C[C@@H](C)C(=O)[C@H](C)[C@H]2N(CCCCn3cc(-c4cccc(N)c4)nn3)C(=O)O[C@]12C [Form I, solithromycin] has Tmax of 6 h

====

Test: in vivo
Conditions: male, Balb/c, mouse, po, 100 mg/kg
ASSAY_READOUT: AUC(0-t)
Put your answer as a value accompanied by its unit after it.

Looking up CC[C@H]1OC(=O)[C@@](C)(F)C(=O)[C@H](C)[C@@H](O[C@@H]2O[C@H](C)C[C@H](N(C)C)[C@H]2O)[C@](C)(OC)C[C@@H](C)C(=O)[C@H](C)[C@H]2N(CCCCn3cc(-c4cccc(N)c4)nn3)C(=O)O[C@]12C [Form I, solithromycin] , I found its AUC(0-t) recorded as 83500 ng·h/mL

====

Assay: in vivo
Details: female, Balb/c, mouse, po, 5 mg/kg, Cmax
ASSAY_READOUT: Cmax (ng/mL)
Form entry: value (ng/mL) — number only.

Recorded result, CC[C@H]1OC(=O)[C@@](C)(F)C(=O)[C@H](C)[C@@H](O[C@@H]2O[C@H](C)C[C@H](N(C)C)[C@H]2O)[C@](C)(OC)C[C@@H](C)C(=O)[C@H](C)[C@H]2N(CCCCn3cc(-c4cccc(N)c4)nn3)C(=O)O[C@]12C [Form I, solithromycin] , Cmax: 1540

====

Assay: Oral pharmacokinetics in Balb/c mice, single dose 20 or 100 mg/kg
Details: female, Balb/c, mouse, plasma, po, 20 mg/kg
ASSAY_READOUT: concentration at 4 h (ng/mL)
Only the number, expressed in ng/mL, is required.

For reference, reported concentration at 4 h for CC[C@H]1OC(=O)[C@@](C)(F)C(=O)[C@H](C)[C@@H](O[C@@H]2O[C@H](C)C[C@H](N(C)C)[C@H]2O)[C@](C)(OC)C[C@@H](C)C(=O)[C@H](C)[C@H]2N(CCCCn3cc(-c4cccc(N)c4)nn3)C(=O)O[C@]12C [Form II, solithromycin] stands at 5500

====

Details: female, Balb/c, mouse, in vivo, po, 5 mg/kg
ASSAY_READOUT: Tmax (min)
Output spec: scalar in min, unitless text.

Measured Tmax of CC[C@H]1OC(=O)[C@@](C)(F)C(=O)[C@H](C)[C@@H](O[C@@H]2O[C@H](C)C[C@H](N(C)C)[C@H]2O)[C@](C)(OC)C[C@@H](C)C(=O)[C@H](C)[C@H]2N(CCCCn3cc(-c4cccc(N)c4)nn3)C(=O)O[C@]12C [Form I, solithromycin] : 36

====

Assay: Oral pharmacokinetics in Balb/c mice, single dose 20 or 100 mg/kg
Settings: male, Balb/c, mouse, plasma, po, 20 mg/kg
ASSAY_READOUT: concentration at 0.25 h (ng/mL)
Enter your answer as a number in ng/mL; do not include the unit.

Entry CC[C@H]1OC(=O)[C@@](C)(F)C(=O)[C@H](C)[C@@H](O[C@@H]2O[C@H](C)C[C@H](N(C)C)[C@H]2O)[C@](C)(OC)C[C@@H](C)C(=O)[C@H](C)[C@H]2N(CCCCn3cc(-c4cccc(N)c4)nn3)C(=O)O[C@]12C [Form II, solithromycin] , concentration at 0.25 h reported as 4100

====

Assay: in vivo
Settings: male, Balb/c, mouse, po, 100 mg/kg
ASSAY_READOUT: concentration at 4 h (ng/mL)
The response must be a number in ng/mL with no trailing unit.

concentration at 4 h reading for CC[C@H]1OC(=O)[C@@](C)(F)C(=O)[C@H](C)[C@@H](O[C@@H]2O[C@H](C)C[C@H](N(C)C)[C@H]2O)[C@](C)(OC)C[C@@H](C)C(=O)[C@H](C)[C@H]2N(CCCCn3cc(-c4cccc(N)c4)nn3)C(=O)O[C@]12C [Form I, solithromycin] : 17400

====

Assay: Further oral pharmacokinetic study in female Balb/c mice, 5, 10 and 20 mg/kg
Settings: mouse, plasma, 10 mg/kg, Cmax, Mean, 10 mg/kg single oral dose
ASSAY_READOUT: Cmax
Express your answer as a number followed by its unit.

Consider CC[C@H]1OC(=O)[C@@](C)(F)C(=O)[C@H](C)[C@@H](O[C@@H]2O[C@H](C)C[C@H](N(C)C)[C@H]2O)[C@](C)(OC)C[C@@H](C)C(=O)[C@H](C)[C@H]2N(CCCCn3cc(-c4cccc(N)c4)nn3)C(=O)O[C@]12C [Form II, solithromycin] . Its measured Cmax is 2630 ng/mL

====

Test: in vivo
Conditions: female, Balb/c, mouse, po, 10 mg/kg, AUC 0-24
ASSAY_READOUT: AUC(0-t) (ng·h/mL)
# number only, unit ng·h/mL dropped from output

AUC(0-t) measured on CC[C@H]1OC(=O)[C@@](C)(F)C(=O)[C@H](C)[C@@H](O[C@@H]2O[C@H](C)C[C@H](N(C)C)[C@H]2O)[C@](C)(OC)C[C@@H](C)C(=O)[C@H](C)[C@H]2N(CCCCn3cc(-c4cccc(N)c4)nn3)C(=O)O[C@]12C [Form I, solithromycin] = 17200

====

Experiment: Oral pharmacokinetics in Balb/c mice, single dose 20 or 100 mg/kg
Conditions: female, Balb/c, mouse, plasma, po, 100 mg/kg
ASSAY_READOUT: concentration at 1 h (ng/mL)
Please state the figure in ng/mL; there is no need to write the unit.

Noted for CC[C@H]1OC(=O)[C@@](C)(F)C(=O)[C@H](C)[C@@H](O[C@@H]2O[C@H](C)C[C@H](N(C)C)[C@H]2O)[C@](C)(OC)C[C@@H](C)C(=O)[C@H](C)[C@H]2N(CCCCn3cc(-c4cccc(N)c4)nn3)C(=O)O[C@]12C [Form II, solithromycin] : its concentration at 1 h reads 9600

====

Assay: in vivo
Conditions: female, Balb/c, mouse, po, 20 mg/kg
ASSAY_READOUT: concentration at 0 h (µg/mL)
Give your result in µg/mL as a bare value.

Item: CC[C@H]1OC(=O)[C@@](C)(F)C(=O)[C@H](C)[C@@H](O[C@@H]2O[C@H](C)C[C@H](N(C)C)[C@H]2O)[C@](C)(OC)C[C@@H](C)C(=O)[C@H](C)[C@H]2N(CCCCn3cc(-c4cccc(N)c4)nn3)C(=O)O[C@]12C [Form I, solithromycin] | concentration at 0 h: 0

====

Experiment: Further oral pharmacokinetic study in female Balb/c mice, 5, 10 and 20 mg/kg
Conditions: mouse, plasma, 20 mg/kg, Cmax, Mean, 20 mg/kg single oral dose
ASSAY_READOUT: Cmax (ng/mL)
Entry rule: numbers only, all in ng/mL.

The reported value for CC[C@H]1OC(=O)[C@@](C)(F)C(=O)[C@H](C)[C@@H](O[C@@H]2O[C@H](C)C[C@H](N(C)C)[C@H]2O)[C@](C)(OC)C[C@@H](C)C(=O)[C@H](C)[C@H]2N(CCCCn3cc(-c4cccc(N)c4)nn3)C(=O)O[C@]12C [Form II, solithromycin] in terms of Cmax is 5360

====

Assay: in vivo
Details: female, Balb/c, mouse, po, 5 mg/kg, t½
ASSAY_READOUT: half-life (h)
Express the result in h but write the number alone.

Looking up CC[C@H]1OC(=O)[C@@](C)(F)C(=O)[C@H](C)[C@@H](O[C@@H]2O[C@H](C)C[C@H](N(C)C)[C@H]2O)[C@](C)(OC)C[C@@H](C)C(=O)[C@H](C)[C@H]2N(CCCCn3cc(-c4cccc(N)c4)nn3)C(=O)O[C@]12C [Form I, solithromycin] , I see its half-life listed as 1.32
